- TEST_NAME: Quantitative High-Throughput drug screen in 47 multiple myeloma cell lines against the NCATS MIPE library collection: KMS11_JCRBsus cell viability assay (AID 1919873); note: nearly all actives have a fitted effect of over 50% in size; note: potency is the fitted concentration of half-maximal effect
- EXPERIMENTAL_PARAMETERS: KMS11 myeloma viability, CellTiter-Glo ATP luminescence, 48 h; series mostly up to 45.8 µM
Inconclusive results are not listed. Active and inactive are the calls of the source. Calls come from the whole dose curve; as a rule, active = well fitted cell-killing curve with a large enough effect; inconclusive = small, poorly fitted or top-dose-only effect, or effect the other way; inactive = no such curve, though single readings can be large or run the other way.
PROPERTY_MEASURED: Potency

NC1=N[C@H]2[C@H](CS[C@H]2CCCCC(=O)O)N1 inactive
Oc1ccc(-c2ccc(-c3cc(Nc4cccc(CNC5CC5)c4)n[nH]3)cc2)c(O)c1 1.32 µM (active)
C#Cc1cccc(Nc2ncnc3cc(OCCOC)c(OCCO)cc23)c1 8.33 µM (active)
COc1cc(C(C)C)c(Oc2cnc(NC(CO)CO)nc2N)cc1I inactive

====

- TEST_NAME: qHTS Screen of the MIPE 4.0 Collection Against Ewings Sarcoma (TC32) (AID 1259256); note: nearly all actives have a fitted effect of over 45% in size
- EXPERIMENTAL_PARAMETERS: TC32 Ewing sarcoma viability, CellTiter-Glo, 48 h; series mostly up to 45.8 µM
Records with an inconclusive call do not appear. Calls of active or inactive are those of the source. The call rests on the fitted dose curve; in most records, active means well fitted inhibition curve with a large enough effect; inconclusive means small, poorly fitted or top-dose-only effect; inactive means no such curve, though single readings can be large or run the other way.
// one of active, inactive, no free text

O=C1NCCc2[nH]c(-c3ccncc3)cc21 active

# fetch the recorded call for `OCCN1C[C@H](O)[C@@H](O)[C@H](O)[C@@H]1CO` here inactive

# fetch the recorded call for `CN[C@H](CC(C)C)C(=O)N[C@H]1C(=O)N[C@@H](CC(N)=O)C(=O)N[C@@H]2C(=O)N[C@H]3C(=O)N[C@H](C(=O)N[C@H](C(=O)O)c4cc(O)cc(O)c4-c4cc3ccc4O)[C@H](O)c3ccc(c(Cl)c3)Oc3cc2cc(c3O[C@@H]2O[C@H](CO)[C@@H](O)[C@H](O)[C@@H]2O[C@H]2C[C@](C)(N)[C@H](O)[C@H](C)O2)Oc2ccc(cc2Cl)[C@H]1O` here inactive

# fetch the recorded call for `C[C@@]12C[C@@]3(O)O[C@@H](O1)[C@]1(COC(=O)c4ccccc4)[C@@H]3C[C@@]12O[C@@H]1O[C@H](CO)[C@@H](O)[C@H](O)[C@@H]1O` here inactive

# fetch the recorded call for `O=C1c2c(O)cccc2[C@@H]([C@@H]2O[C@H](CO)[C@@H](O)[C@H](O)[C@H]2O)c2cc(CO)cc(O)c21` here inactive

# fetch the recorded call for `C#C[C@]1(O)CC[C@@H]2[C@@H]3CCc4cc(O)ccc4[C@H]3CC[C@@]21C` here active

# fetch the recorded call for `CCc1ccc(C(=O)Nc2cc(CN3CCN(C)CC3)cc(C(F)(F)F)c2)cc1C#Cc1cnc2ccnn2c1` here active

# fetch the recorded call for `COc1cc(OC)cc(-c2ccc3ncc4ccc(=O)n(-c5ccc(N6CCNCC6)c(C(F)(F)F)c5)c4c3c2)c1` here active

# fetch the recorded call for `CCCCCN=C(N)NN=Cc1c[nH]c2ccc(OC)cc12` here active

# fetch the recorded call for `C[N+]1(C)[C@@H]2C[C@@H](OC(=O)C(O)(c3cccs3)c3cccs3)C[C@H]1[C@@H]1O[C@@H]12` here inactive

====

- TEST_NAME: Quantitative High-Throughput drug screen in 47 multiple myeloma cell lines against the NCATS MIPE library collection: KMS12BM_JCRB cell viability assay (AID 1918971); note: nearly all actives have a fitted effect of over 35% in size
- EXPERIMENTAL_PARAMETERS: KMS12BM myeloma viability, CellTiter-Glo ATP, 48 h; series mostly up to 45.8 µM
Results filed as inconclusive are left out. Calls of active or inactive are those of the source. Calls follow the shape of the dose curve; as a rule, active = well fitted cell-killing curve with a large enough effect; inconclusive = small, poorly fitted or top-dose-only effect, or effect the other way; inactive = no such curve, though single readings can be large or run the other way.
// one of class 1 for active, class 0 for inactive, no free text

Check out these entries, answers already filled in.
COMPOUND	GROUP_LABEL
OC[C@@H](O)[C@@H](O)[C@H](O)[C@@H](O)CO	class 0
CCCCCCCCCCCCc1ccc(S(=O)(=O)Nc2nncs2)cc1	class 0
COc1cccc2c1C(=O)c1c(O)c3c(c(O)c1C2=O)C[C@@](O)(C(=O)CO)C[C@H]3O[C@H]1C[C@H](N)[C@H](O)[C@H](C)O1	class 1

# fetch the recorded call for `Cc1[nH]c(C=C2C(=O)Nc3ccccc32)c(C)c1CCC(=O)O` here class 1

# fetch the recorded call for `CCN(C(=O)c1c(O)c2c(Cl)cccc2n(C)c1=O)c1ccccc1` here class 0

# fetch the recorded call for `Cc1cnc(NC(=O)Nc2cc(Br)c(C)cc2OC[C@@H]2CNCCO2)cn1` here class 1

# fetch the recorded call for `NC(=O)c1ncn([C@@H]2O[C@H](CO)[C@@H](O)[C@@H]2O)c1O` here class 0

# fetch the recorded call for `C=C(C)[C@@H]1CC[C@]2(C)CC[C@]3(C)[C@H](CC[C@@H]4[C@@]5(C)CC[C@H](O)C(C)(C)[C@H]5CC[C@]43C)[C@@H]12` here class 0

# fetch the recorded call for `c1ccc(CNc2nc(NCc3ccccc3)c3ccccc3n2)cc1` here class 1

# fetch the recorded call for `CCCCC(=O)O[C@]1(C(=O)CO)[C@@H](C)C[C@H]2[C@@H]3CCC4=CC(=O)C=C[C@]4(C)[C@@]3(F)[C@@H](O)C[C@@]21C` here class 0

# fetch the recorded call for `O=C1NC(=O)[C@@H](c2cn3c4c(cccc24)CCC3)[C@H]1c1c[nH]c2ccccc12` here class 1

# fetch the recorded call for `C=CC(=O)Nc1ccc2ncnc(Nc3ccc(OCc4cccc(F)c4)c(Cl)c3)c2c1` here class 1

# fetch the recorded call for COc1cc(C)c(Sc2cnc(NC(=O)c3ccc(CNC(C)C(C)(C)C)cc3)s2)cc1C(=O)N1CCN(C(C)=O)CC1 (centres undefined) here class 1

# fetch the recorded call for CCC(C(=O)O)C1CCC(C)C(C(C)C(O)C(C)C(=O)C(CC)C2OC3(C=CC(O)[C@@]4(CC[C@](C)(C5CC[C@@](O)(CC)C(C)O5)O4)O3)C(C)CC2C)O1 (some centres undefined) here class 1

# fetch the recorded call for COc1cc(O)c2c(c1)C1OC1C[C@H](O)[C@H](O)C(=O)C=CC[C@H](C)OC2=O (some centres undefined) here class 1

# fetch the recorded call for `O=C(C=CC#Cc1cccc(NS(=O)(=O)c2ccccc2)c1)NO` here class 1

# fetch the recorded call for `COc1ccc([C@@H]2CNC(=O)C2)cc1OC1CCCC1` here class 0

# fetch the recorded call for `NS(=O)(=O)OC[C@@H]1C[C@@H](n2ccc3c(N[C@H]4CCc5ccccc54)ncnc32)C[C@H]1O` here class 1

# fetch the recorded call for `C[C@@H](NCc1cc2ccccc2[nH]1)c1cccc2ccccc12` here class 0

====

- TEST_NAME: qHTS drug screen for cell cycle checkpoint inhibitors in PARPi-resistant BRCA-mutant ovarian cancer cell lines. (AID 1963452)
- EXPERIMENTAL_PARAMETERS: PEO1/OlaR viability, CellTiter-Glo luminescence, 96 h; measured here: PEO1 parental Z-AUC; stronger effect = lower value
# maps each entry to its Z-AUC
Keep it simple and answer with nothing but the number.

COMPOUND	REPORTED_VALUE
c1coc(CNc2ncnc3nc[nH]c23)c1	0.956
CCOC(=O)C1=C(C)NC(=S)NC1c1cccc(O)c1 (stereo not given)	0.343
Nc1nc(=O)n([C@H]2C[C@H](O)[C@@H](CO)O2)cc1F	-1.19
Nc1ccc(C(=O)Nc2cccc(-c3nc(N4CCOCC4)c4oc5ncccc5c4n3)c2)cn1	-0.164

Now take the following compound into account.
Recorded Z-AUC of OC[C@H]1OC(O)C[C@@H](O)[C@H]1O (stereo not given in full) , please. -0.645

====

- TEST_NAME: qHTS Screen of the MIPE 4.0 Collection Against Ewings Sarcoma (TC71) (AID 1259253); note: nearly all actives have a fitted effect of over 40% in size; note: potency is the fitted concentration of half-maximal effect
- EXPERIMENTAL_PARAMETERS: TC71 Ewing sarcoma viability, CellTiter-Glo, 48 h; series mostly up to 45.8 µM
Records with an inconclusive call do not appear. The source made the active and inactive calls. Calls follow the shape of the dose curve; as a rule, active = well fitted inhibition curve with a large enough effect; inconclusive = small, poorly fitted or top-dose-only effect; inactive = no such curve, though single readings can be large or run the other way.
PROPERTY_MEASURED: Potency

Check out these entries, answers already filled in.
COMPOUND	Potency
CN(C)CC[C@H](c1ccc(Cl)cc1)c1ccccn1	inactive
C[C@H](NC(=O)Cc1cc(F)cc(F)c1)C(=O)N[C@H](C(=O)OC(C)(C)C)c1ccccc1	inactive
CC(C)NC[C@@H](C(=O)N1CCN(c2ncnc3c2[C@H](C)C[C@H]3O)CC1)c1ccc(Cl)cc1	11.8 µM (active)
C[N+](C)([O-])CCNc1ccc(NCC[N+](C)(C)[O-])c2c1C(=O)c1c(O)ccc(O)c1C2=O	16.6 µM (active)
COc1cccc2c1C(=O)c1c(O)c3c(c(O)c1C2=O)C[C@@](O)(C(=O)CO)C[C@@H]3O[C@H]1C[C@H](N)[C@H](OC2CCCCO2)[C@H](C)O1 (stereo partly drawn)	0.662 µM (active)
O=C(CCCCCCC(=O)Nc1cccnc1)NO	5.26 µM (active)
O=C(O)CCCCC(CCSCc1ccccc1)SCc1ccccc1 (stereo not drawn)	inactive

Now take the following compound into account.
Recorded Potency of Cc1noc(-c2ccc(CSCCC(=O)O)cc2)c1NC(=O)OC(C)c1ccccc1Cl (stereo not drawn) , please. inactive
